Molecular target: LGR6 (Homo sapiens)
Construct: purchased Promega (in-house HiBiT-GPCR construct library, NanoBRET)
Sequence (Q9HBX8 25-967): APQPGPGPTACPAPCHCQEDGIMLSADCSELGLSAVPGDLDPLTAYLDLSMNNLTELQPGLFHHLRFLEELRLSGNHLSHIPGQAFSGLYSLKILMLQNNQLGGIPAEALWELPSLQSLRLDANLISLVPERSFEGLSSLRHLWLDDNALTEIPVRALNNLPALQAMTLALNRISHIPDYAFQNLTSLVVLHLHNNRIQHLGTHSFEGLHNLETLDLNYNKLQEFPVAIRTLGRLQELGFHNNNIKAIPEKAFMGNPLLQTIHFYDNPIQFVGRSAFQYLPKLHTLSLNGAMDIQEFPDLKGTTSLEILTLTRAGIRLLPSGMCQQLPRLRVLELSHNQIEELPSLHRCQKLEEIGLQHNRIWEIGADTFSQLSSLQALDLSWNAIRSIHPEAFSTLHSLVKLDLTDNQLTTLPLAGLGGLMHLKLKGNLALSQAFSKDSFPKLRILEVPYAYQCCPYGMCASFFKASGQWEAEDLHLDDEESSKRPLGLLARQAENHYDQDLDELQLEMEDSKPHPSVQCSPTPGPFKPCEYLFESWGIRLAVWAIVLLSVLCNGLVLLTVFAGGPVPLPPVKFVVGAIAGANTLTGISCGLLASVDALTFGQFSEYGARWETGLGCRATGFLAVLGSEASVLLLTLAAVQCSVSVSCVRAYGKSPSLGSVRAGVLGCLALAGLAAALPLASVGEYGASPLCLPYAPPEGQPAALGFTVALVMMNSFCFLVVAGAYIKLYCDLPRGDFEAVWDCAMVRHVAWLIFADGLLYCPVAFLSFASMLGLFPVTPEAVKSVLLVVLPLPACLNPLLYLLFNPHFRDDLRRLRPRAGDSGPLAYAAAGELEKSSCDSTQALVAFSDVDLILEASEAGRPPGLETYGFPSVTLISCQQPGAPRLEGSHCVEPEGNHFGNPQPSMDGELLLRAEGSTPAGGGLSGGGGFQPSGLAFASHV
Experiment: NanoBRET screen HiBiT-LGR6 in HEK293
Type: binding
Conditions: LGR6; tracer 0.1μM
Experimental: Each tracer candidate was screened across the entire library of HiBiT-GPCR constructs using NanoBRET as the detection modality. As depicted in Figure 4A, the specificity of interactions was evaluated through decrease in BRET due to competitive displacement of a bound tracer by excess parental compound. Each tracer was analyzed for binding to each HiBiT-GPCR fusion in the absence and in the presence of competing parental compound. […]
The threshold is 1. Values of NanoBRET Fold Response beneath it are tagged condition met; values meeting or exceeding it are tagged condition not met.

Some solved entries appear below for comparison.
- COMPOUND: "Cc1nc2n(c(=O)c1CCN1CCC(c3noc4cc(F)ccc34)CC1)CCCC2OC(=O)NCCOCCOCCOCCOCCNC(=O)CCc1ccc2n1[B-](F)(F)[N+]1=C(c3ccc[nH]3)C=CC1=C2 (stereo not shown)"
  LABEL_CLASS: "condition not met"
- COMPOUND: "COc1ccccc1N1CCN(CCCCN2C(=O)c3ccc(CNC(=O)CCOCCNC(=O)c4ccc(CNC(=O)CCc5ccc6n5[B-](F)(F)[N+]5=C(c7ccc[nH]7)C=CC5=C6)cc4)cc3C2=O)CC1"
  LABEL_CLASS: "condition not met"
- COMPOUND: "O=C(CCc1ccc2n1[B-](F)(F)[N+]1=C(c3ccc[nH]3)C=CC1=C2)NCc1ccc(C(=O)NCCOCCC(=O)N[C@@H]2CC[C@@]3(O)[C@H]4Cc5ccc(O)c6c5[C@@]3(CCN4CC3CC3)[C@H]2O6)cc1 [Naltrexone-3-NB590]"
  LABEL_CLASS: "condition not met"

query: Could you please tell me whether NanoBRET Fold Response recorded for Cc1cc2c(s1)Nc1ccccc1N=C2N1CCN(CCCNC(=O)CCOCCOCCOCCOCCNC(=O)CCc2ccc3n2[B-](F)(F)[N+]2=C(c4ccc[nH]4)C=CC2=C3)CC1 is less than 1?
result: condition not met

query: State whether 1 exceeds NanoBRET Fold Response recorded for CC(C)N(CC[C@H](c1ccccc1)c1cc(CCNC(=O)c2ccc(CNC(=O)CCc3ccc4n3[B-](F)(F)[N+]3=C(c5ccc[nH]5)C=CC3=C4)cc2)ccc1O)C(C)C .
result: condition not met

query: Please check: NanoBRET Fold Response for N#CN=C(NCCCOc1cccc(CN2CCCCC2)c1)NCCNC(=O)CCOCCOCCOCCOCCNC(=O)CCc1ccc2n1[B-](F)(F)[N+]1=C(c3ccc[nH]3)C=CC1=C2 , strictly under 1 or not?
result: condition met

query: In plain terms, does O=C(CCc1ccc2n1[B-](F)(F)[N+]1=C(c3ccc[nH]3)C=CC1=C2)NCCOCCOCCNC(=O)OCCOCCN1CCN(C2=Nc3ccccc3Sc3ccccc32)CC1 come in under 1 for NanoBRET Fold Response?
result: condition met

----------
biological target: RXFP4 (Homo sapiens); construct: purchased Promega (in-house HiBiT-GPCR construct library, NanoBRET); assay: NanoBRET screen HiBiT-RXFP4 in HEK293; type: binding; details: RXFP4; tracer 1μM
Sequence (Q8TDU9 whole entry): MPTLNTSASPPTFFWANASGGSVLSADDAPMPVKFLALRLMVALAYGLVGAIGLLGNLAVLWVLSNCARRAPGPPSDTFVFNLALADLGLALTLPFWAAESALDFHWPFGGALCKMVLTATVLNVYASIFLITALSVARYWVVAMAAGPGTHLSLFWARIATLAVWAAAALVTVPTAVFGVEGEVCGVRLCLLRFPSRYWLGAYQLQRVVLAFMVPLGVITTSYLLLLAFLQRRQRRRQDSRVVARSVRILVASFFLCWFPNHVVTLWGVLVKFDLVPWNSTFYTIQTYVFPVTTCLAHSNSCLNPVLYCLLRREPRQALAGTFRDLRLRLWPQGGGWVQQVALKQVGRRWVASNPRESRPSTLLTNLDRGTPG
OUTCOME_MEASURE: NanoBRET Fold Response
Hey, just send me the number, nothing else.

- COMPOUND: "Cc1nc2n(c(=O)c1CCN1CCC(c3noc4cc(F)ccc34)CC1)CCCC2OC(=O)NCCOCCOCCOCCOCCNC(=O)CCc1ccc2n1[B-](F)(F)[N+]1=C(c3ccc[nH]3)C=CC1=C2 (stereo not drawn) [Risperidone-2-NB590]"
  OUTCOME_MEASURE: "NanoBRET Fold Response"
  NUMERIC_READOUT: 1.10

Then this compound:
query: Tell me NanoBRET Fold Response reported for O=C(CCc1ccc2n1[B-](F)(F)[N+]1=C(c3ccc[nH]3)C=CC1=C2)NCc1ccc(C(=O)NCCOCCC(=O)N[C@@H]2CC[C@@]3(O)[C@H]4Cc5ccc(O)c6c5[C@@]3(CCN4CC3CC3)[C@H]2O6)cc1 [Naltrexone-3-NB590]
result: 0.98

----------
molecular target: P2RY14 (Homo sapiens, UniProt Q15391); construct: purchased Promega (in-house HiBiT-GPCR construct library, NanoBRET); experiment: NanoBRET screen HiBiT-P2RY14 in HEK293; assay type: binding; details: P2RY14; tracer 1μM
Sequence (Q15391 whole entry, one chain of several): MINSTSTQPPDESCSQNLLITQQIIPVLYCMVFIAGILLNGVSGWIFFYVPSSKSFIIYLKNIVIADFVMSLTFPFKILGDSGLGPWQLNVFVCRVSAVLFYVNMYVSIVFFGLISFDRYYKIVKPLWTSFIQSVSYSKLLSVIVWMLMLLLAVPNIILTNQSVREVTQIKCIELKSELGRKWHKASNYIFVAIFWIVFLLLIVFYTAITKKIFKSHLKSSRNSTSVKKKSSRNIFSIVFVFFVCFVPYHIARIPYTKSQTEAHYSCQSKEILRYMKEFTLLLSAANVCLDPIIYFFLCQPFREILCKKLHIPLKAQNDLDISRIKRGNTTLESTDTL
OUTCOME_MEASURE: NanoBRET Fold Response
When you answer, write just the number.

Known NanoBRET Fold Response results, listed for orientation:
- COMPOUND: "O=C(CCOCCOCCOCCOCCNC(=O)CCc1ccc2n1[B-](F)(F)[N+]1=C(c3ccc[nH]3)C=CC1=C2)NCCCN1CCN(C2=Nc3ccccc3Oc3ccc(Cl)cc32)CC1"
  OUTCOME_MEASURE: "NanoBRET Fold Response"
  NUMERIC_READOUT: 0.98
- COMPOUND: "O=C(CCc1ccc2n1[B-](F)(F)[N+]1=C(c3ccc[nH]3)C=CC1=C2)NCCOCCOCCNC(=O)OCCOCCN1CCN(C2=Nc3ccccc3Sc3ccccc32)CC1"
  OUTCOME_MEASURE: "NanoBRET Fold Response"
  NUMERIC_READOUT: 0.93
- COMPOUND: "Cc1cc2c(s1)Nc1ccccc1N=C2N1CCN(CCCNC(=O)CCOCCOCCOCCOCCNC(=O)CCc2ccc3n2[B-](F)(F)[N+]2=C(c4ccc[nH]4)C=CC2=C3)CC1"
  OUTCOME_MEASURE: "NanoBRET Fold Response"
  NUMERIC_READOUT: 1.00
- COMPOUND: "CC(C)N(CC[C@H](c1ccccc1)c1cc(CCNC(=O)c2ccc(CNC(=O)CCc3ccc4n3[B-](F)(F)[N+]3=C(c5ccc[nH]5)C=CC3=C4)cc2)ccc1O)C(C)C"
  OUTCOME_MEASURE: "NanoBRET Fold Response"
  NUMERIC_READOUT: 0.88
- COMPOUND: "CC(C)N(CC[C@H](c1ccccc1)c1cc(CCNC(=O)CCOCCOCCOCCOCCNC(=O)CCc2ccc3n2[B-](F)(F)[N+]2=C(c4ccc[nH]4)C=CC2=C3)ccc1O)C(C)C"
  OUTCOME_MEASURE: "NanoBRET Fold Response"
  NUMERIC_READOUT: 1.08

Proceeding to the next compound to report its NanoBRET Fold Response.
query: For the compound Cc1nc2n(c(=O)c1CCN1CCC(c3noc4cc(F)ccc34)CC1)CCCC2OC(=O)NCCOCCOCCOCCOCCNC(=O)CCc1ccc2n1[B-](F)(F)[N+]1=C(c3ccc[nH]3)C=CC1=C2 (stereo not shown) , give its reported NanoBRET Fold Response.
result: 0.93

----------
target: FZD7 (Homo sapiens); construct: purchased Promega (in-house HiBiT-GPCR construct library, NanoBRET); experiment: NanoBRET screen HiBiT-FZD7 in HEK293; format: binding; details: FZD7; tracer 0.1μM
OUTCOME_MEASURE: NanoBRET Fold Response
Lab note: jot the number down without any unit.

Example entries and their recorded answers appear below.
- MOLECULE: "Cc1nc2n(c(=O)c1CCN1CCC(c3noc4cc(F)ccc34)CC1)CCCC2OC(=O)NCCOCCOCCOCCOCCNC(=O)CCc1ccc2n1[B-](F)(F)[N+]1=C(c3ccc[nH]3)C=CC1=C2 (centres unmarked)"
  NanoBRET Fold Response: 0.98
- MOLECULE: "O=C(CCc1ccc2n1[B-](F)(F)[N+]1=C(c3ccc[nH]3)C=CC1=C2)NCCOCCOCCNC(=O)OCCOCCN1CCN(C2=Nc3ccccc3Sc3ccccc32)CC1"
  NanoBRET Fold Response: 1.04
- MOLECULE: "O=C(CCc1ccc2n1[B-](F)(F)[N+]1=C(c3ccc[nH]3)C=CC1=C2)NCc1ccc(C(=O)NCCOCCC(=O)N[C@@H]2CC[C@@]3(O)[C@H]4Cc5ccc(O)c6c5[C@@]3(CCN4CC3CC3)[C@H]2O6)cc1 [Naltrexone-3-NB590]"
  NanoBRET Fold Response: 1.32
- MOLECULE: "COc1ccccc1N1CCN(CCCCN2C(=O)c3ccc(CNC(=O)CCOCCOCCOCCOCCNC(=O)CCc4ccc5n4[B-](F)(F)[N+]4=C(c6ccc[nH]6)C=CC4=C5)cc3C2=O)CC1"
  NanoBRET Fold Response: 1.00

With those in mind, consider the next molecule.
query: Give the value of NanoBRET Fold Response reported for the following: CCCn1c(=O)c2[nH]c(-c3ccc(OCC(=O)NCCNC(=O)CCOCCNC(=O)c4ccc(CNC(=O)CCc5ccc6n5[B-](F)(F)[N+]5=C(c7ccc[nH]7)C=CC5=C6)cc4)cc3)nc2n(CCC)c1=O
result: 1.09
